Every entry's value here was drawn from patent US9751888B2.

target: UniProtKB P42338; experiment: PI3-Kinase Promega ADP-Glo Max assay, β isoform; conditions: 40 nM kinase, 3 mM ATP, 500 uM diC8-PtdInsP; read-out: Promega β PI3K IC50
Sequence (P42338 whole entry, looked up, canonical isoform): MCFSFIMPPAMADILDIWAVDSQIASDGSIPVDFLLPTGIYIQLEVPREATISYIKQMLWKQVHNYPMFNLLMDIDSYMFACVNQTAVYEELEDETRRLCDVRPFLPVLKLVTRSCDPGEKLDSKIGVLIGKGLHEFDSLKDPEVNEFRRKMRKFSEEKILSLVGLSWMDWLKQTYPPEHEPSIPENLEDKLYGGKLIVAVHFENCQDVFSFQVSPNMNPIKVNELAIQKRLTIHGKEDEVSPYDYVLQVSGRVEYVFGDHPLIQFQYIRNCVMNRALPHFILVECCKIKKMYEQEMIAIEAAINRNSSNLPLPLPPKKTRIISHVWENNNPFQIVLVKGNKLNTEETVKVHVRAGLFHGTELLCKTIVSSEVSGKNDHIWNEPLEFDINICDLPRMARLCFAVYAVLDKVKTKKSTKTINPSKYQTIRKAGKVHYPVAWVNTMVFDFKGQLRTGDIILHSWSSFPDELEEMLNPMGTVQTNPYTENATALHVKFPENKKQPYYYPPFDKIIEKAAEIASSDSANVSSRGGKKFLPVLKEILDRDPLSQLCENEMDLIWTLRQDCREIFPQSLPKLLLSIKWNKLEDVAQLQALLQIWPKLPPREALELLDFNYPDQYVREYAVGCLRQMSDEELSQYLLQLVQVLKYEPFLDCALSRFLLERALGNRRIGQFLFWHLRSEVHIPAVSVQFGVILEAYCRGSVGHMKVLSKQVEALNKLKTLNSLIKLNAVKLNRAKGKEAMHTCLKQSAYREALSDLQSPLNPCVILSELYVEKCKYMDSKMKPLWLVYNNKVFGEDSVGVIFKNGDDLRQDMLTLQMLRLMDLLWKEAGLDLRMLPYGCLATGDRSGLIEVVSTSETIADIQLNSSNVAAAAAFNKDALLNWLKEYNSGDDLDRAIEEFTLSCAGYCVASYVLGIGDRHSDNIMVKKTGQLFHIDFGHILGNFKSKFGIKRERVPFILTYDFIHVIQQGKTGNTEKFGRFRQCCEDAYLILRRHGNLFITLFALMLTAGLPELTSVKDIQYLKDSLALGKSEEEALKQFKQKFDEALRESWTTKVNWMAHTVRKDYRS
Sequence (P27986 whole entry partner, looked up, canonical isoform): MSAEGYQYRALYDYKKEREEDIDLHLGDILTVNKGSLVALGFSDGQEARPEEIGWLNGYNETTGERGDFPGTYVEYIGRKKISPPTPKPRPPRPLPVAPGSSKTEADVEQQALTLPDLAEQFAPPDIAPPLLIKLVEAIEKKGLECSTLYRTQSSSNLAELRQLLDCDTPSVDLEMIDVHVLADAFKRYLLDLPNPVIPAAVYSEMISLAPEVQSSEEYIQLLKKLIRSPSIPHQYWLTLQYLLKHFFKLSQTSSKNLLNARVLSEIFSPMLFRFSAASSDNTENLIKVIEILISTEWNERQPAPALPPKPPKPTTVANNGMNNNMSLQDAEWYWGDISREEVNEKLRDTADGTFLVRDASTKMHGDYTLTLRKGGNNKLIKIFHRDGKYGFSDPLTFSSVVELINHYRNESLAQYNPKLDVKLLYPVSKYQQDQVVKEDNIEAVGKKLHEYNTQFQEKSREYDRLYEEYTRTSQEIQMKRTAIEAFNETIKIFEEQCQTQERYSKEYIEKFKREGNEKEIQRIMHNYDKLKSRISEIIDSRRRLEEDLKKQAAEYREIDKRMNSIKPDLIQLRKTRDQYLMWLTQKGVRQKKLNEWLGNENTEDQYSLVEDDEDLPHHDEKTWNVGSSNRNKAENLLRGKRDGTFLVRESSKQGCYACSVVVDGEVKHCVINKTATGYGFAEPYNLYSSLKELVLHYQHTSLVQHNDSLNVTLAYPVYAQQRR
pIC50: −log10 of the molar value.
QUANTITY MEASURED: pIC50

INSERT INTO results (compound, meas_value) VALUES
  ('C[C@H](NC(=O)c1c(N)nn2cccnc12)c1cc2cccc(Cl)c2c(=O)n1CCc1nnnn1C [Compound 55]', '6.30 to 7.00'),
  ('Cc1noc(CCn2c([C@H](C)NC(=O)c3c(N)nn4cccnc34)cc3cccc(Cl)c3c2=O)n1 [Compound 18]', '5.00 to 6.00'),
  ('C[C@H](NC(=O)c1nc(C2CC2)cnc1N)c1cc2cccc(Cl)c2c(=O)n1-c1ccccc1 [Compound 3]', '5.00 to 6.00'),
  ('CCS(=O)(=O)NCCn1c([C@H](C)NC(=O)c2c(N)nn3cccnc23)cc2cccc(Cl)c2c1=O [Compound 61]', '6.30 to 7.00'),
  ('C[C@H](NC(=O)c1c(N)nn2cccnc12)c1oc2ccc(F)cc2c(=O)c1-c1ccccc1 [Compound 96]', '5.00 to 6.00');
